The measured values listed here are drawn from patent US8586751B2.

- tgt: human recombinant Btk (Homo sapiens)
- Sequence (Q06187 whole entry): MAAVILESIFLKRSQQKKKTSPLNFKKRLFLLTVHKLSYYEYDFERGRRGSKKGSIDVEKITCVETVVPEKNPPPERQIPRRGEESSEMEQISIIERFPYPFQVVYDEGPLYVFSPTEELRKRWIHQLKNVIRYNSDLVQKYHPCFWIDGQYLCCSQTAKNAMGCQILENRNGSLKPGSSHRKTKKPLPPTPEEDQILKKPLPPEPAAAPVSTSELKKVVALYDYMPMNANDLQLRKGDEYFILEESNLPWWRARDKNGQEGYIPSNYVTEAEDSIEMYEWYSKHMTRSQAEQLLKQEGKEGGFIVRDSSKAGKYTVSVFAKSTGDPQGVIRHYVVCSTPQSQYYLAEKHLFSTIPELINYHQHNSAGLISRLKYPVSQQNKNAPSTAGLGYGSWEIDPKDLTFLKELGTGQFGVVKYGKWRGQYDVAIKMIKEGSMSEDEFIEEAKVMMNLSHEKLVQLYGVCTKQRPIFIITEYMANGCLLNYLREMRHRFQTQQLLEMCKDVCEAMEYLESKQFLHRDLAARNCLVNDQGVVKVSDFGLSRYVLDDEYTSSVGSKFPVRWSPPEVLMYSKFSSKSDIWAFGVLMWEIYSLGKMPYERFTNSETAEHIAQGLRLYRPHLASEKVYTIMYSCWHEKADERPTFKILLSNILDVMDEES
- assay: Human Recombinant Btk Enzyme Assay (LLE_BTK)
Class membership depends on IC50 alone; the intervals are low class: < 2 nM; middle class: ≥ 2 nM and < 900 nM; high class: ≥ 900 nM

{"columns": ["compound", "category"],
 "data": [
  ["CN1CCN(c2ccc(Nc3nc(N4CCC[C@@H](NC(=O)c5ccccc5)C4)c(F)cc3C(N)=O)cc2F)CC1", "low class"],
  ["CN(C)CCc1ccc(Nc2nc(N3CCCC(F)(F)C3)c(F)cc2C(N)=O)cc1", "middle class"],
  ["CNc1cccc(Nc2nc(-c3ccc(Cl)cc3)ccc2C(N)=O)c1", "high class"],
  ["NC(=O)c1cc(F)c(N2CCC[C@@H](NC(=O)c3ccc(F)c(Cl)c3)C2)nc1Nc1ccc(F)cc1", "high class"],
  ["NC(=O)c1ccc(N2CC[C@@H](N)C2)nc1Nc1ccc(C(=O)N2CCOCC2)cc1", "high class"],
  ["C[N+](C)([O-])CCc1ccc(Nc2nc(N3CCC[C@@H](NC(=O)Nc4nccs4)C3)c(F)cc2C(N)=O)cc1", "low class"],
  ["NC(=O)c1cc(F)c(N2CCC[C@@H](NC(=O)Nc3nccs3)C2)nc1Nc1ccc(CCN2CCC2)cc1", "low class"],
  ["CN1CCC(O)(c2ccc(Nc3nc(N4CCC[C@@H](N5CCCC5=O)C4)c(F)cc3C(N)=O)cc2)C(C)(C)C1 (some centres unmarked)", "low class"],
  ["Cc1csc(NC(=O)N[C@@H]2CCCN(c3ccc(C(N)=O)c(Nc4ccc(N5CCN(C)CC5)cc4)n3)C2)n1", "middle class"],
  ["CC(C)(C)OC(=O)N1CCC(O)(c2ccc(Nc3nc(N4CCCCC4)c(F)cc3C(N)=O)cc2)C(C)(C)C1 (centres unmarked)", "high class"],
  ["Cc1ccc(NC(=O)c2ccc(C(C)(C)C)cc2)cc1-c1ccc(C(N)=O)c(Nc2ccc(C(=O)N3CCOCC3)cc2)n1", "high class"],
  ["CC(C)(C)OC(=O)N1CCCC(c2ccc(Nc3nc(N4CCCCC4)c(F)cc3C(N)=O)cc2)C1 (centres unmarked)", "high class"],
  ["CN(C)S(=O)(=O)c1ccc(Nc2nc(N3CCC[C@@H](NC(=O)c4ccccc4)C3)c(F)cc2C(N)=O)cc1", "low class"],
  ["CN(C(=O)Nc1ccccc1)c1cccc(Nc2nc(N3CCOCC3)c(F)cc2C(N)=O)c1", "high class"],
  ["CN1CCN(c2ccc(Nc3nc(N4CCC(O)CC4)c(F)cc3C(N)=O)cc2)CC1", "middle class"],
  ["CN1CCC(C)(c2ccc(Nc3nc(N4CCC[C@@H](NC(=O)Nc5nnc(C(C)(C)C)s5)C4)c(F)cc3C(N)=O)cc2)CC1", "low class"],
  ["CNC(=O)c1ccc(N2CCC[C@@H](NC(=O)c3ccc(C(C)(C)C)cc3)C2)nc1Nc1ccc(C(=O)N2CCOCC2)cc1", "high class"],
  ["NC(=O)c1cc(F)c(N2CCC[C@@H](NC(=O)Nc3nccs3)C2)nc1Nc1ccc(CCN2CCCC2)cc1", "low class"],
  ["CN1CCN(c2ccc(Nc3nc(N4CCCCC4)c(F)cc3C(N)=O)cc2)CC1", "middle class"],
  ["CN1CCC(c2ccc(Nc3nc(N4CCCCC4)c(F)cc3C(N)=O)cc2)CC1", "middle class"],
  ["CN(C)CCc1ccc(Nc2nc(N3CCC[C@@H](NC(=O)Nc4nccs4)C3)c(F)cc2C(N)=O)cc1", "low class"],
  ["NC(=O)c1cc(F)c(N2CCOCC2)nc1Nc1cccc(CS(=O)(=O)N2CCCC2)c1", "high class"]
]}
